# Tested on: Yap1 mRNA
# test-protocol: Antisense inhibition of human Yap1 in A-431 cells by cEt gapmers, single dose (Example 2, RTS4814)
# Assay type: cell-based
# condition-notes: Yap1 mRNA as percent of untreated control; A-431 cells; 3-10-3 cEt gapmers targeting SEQ ID NO.: 1, and 2; Table 31
Strand notation (5' to 3'): a small letter for the sugar, then the base; units joined by * are phosphorothioate-linked, units joined directly phosphodiester-linked; [ ] holds rarer units or linkages, { } end groups; capitals alone tell only the bases. k = constrained ethyl (cEt); [5mC] = 5-methylcytosine; d = 2'-deoxy (DNA)
Tag: label 1 if measured YAP1 (% UTC) is not below 40 % UTC, label 0 if it is.

* 1074513 (kA*kG*kG*dA*dT*dA*d[5mC]*dA*dT*dT*d[5mC]*d[5mC]*dA*k[5mC]*kT*kA; antisense) [compound 1074513] | label 1
* 1076433 (kA*kT*kT*dA*dA*d[5mC]*dT*dT*dT*d[5mC]*dG*d[5mC]*dT*kA*kA*kA; antisense) [compound 1076433] | label 1
* 1076561 (kG*kT*kA*dT*dA*d[5mC]*d[5mC]*dA*dA*dG*d[5mC]*dT*dA*k[5mC]*kT*k[5mC]; antisense) [compound 1076561] | label 0
* 1076401 (antisense kT*k[5mC]*kT*dA*dA*dA*dG*dA*d[5mC]*dT*d[5mC]*dT*d[5mC]*kA*kT*kT) [compound 1076401] | label 0
* 1075985 (kA*kT*kA*dT*d[5mC]*dG*dA*dA*dA*dA*dG*d[5mC]*dA*kA*kA*k[5mC]; antisense) [compound 1075985] | label 1
* 1074129 (k[5mC]*k[5mC]*k[5mC]*dG*dG*d[5mC]*dT*d[5mC]*d[5mC]*dA*d[5mC]*dT*dG*kG*kT*k[5mC]; antisense) [compound 1074129] | label 1
* 1075185 (kG*k[5mC]*k[5mC]*d[5mC]*dA*dA*dG*dA*dA*d[5mC]*dA*d[5mC]*dT*kG*kG*kT; antisense) [compound 1075185] | label 1
* 1075089 (k[5mC]*kA*kT*dT*dT*dA*dT*dA*dG*dT*d[5mC]*dA*dG*kG*kT*kT; antisense) [compound 1075089] | label 0
* 1074961 (antisense kT*k[5mC]*k[5mC]*dT*d[5mC]*d[5mC]*dT*dT*dA*dA*d[5mC]*d[5mC]*d[5mC]*kG*kG*kG) [compound 1074961] | label 1
* 1076177 (k[5mC]*kT*kT*dT*dA*dT*dT*dT*d[5mC]*d[5mC]*d[5mC]*dA*d[5mC]*k[5mC]*k[5mC]*kG; antisense) [compound 1076177] | label 0
* 1074769 (kT*k[5mC]*kT*dT*dA*dT*d[5mC]*d[5mC]*d[5mC]*dA*dA*dT*dG*k[5mC]*kT*kA; antisense) [compound 1074769] | label 0

* * *

# Test system: Yap1 mRNA
# test-protocol: Antisense inhibition of human Yap1 in SNU-449 cells by modified oligonucleotides, single dose (Example 5, RTS36584)
# Format: cell-based
# condition-notes: Table 46; Yap1 mRNA as percent of untreated control, SNU-449 cells, single dose
Strand notation (5' to 3'): a small letter for the sugar, then the base; units joined by * are phosphorothioate-linked, units joined directly phosphodiester-linked; [ ] holds rarer units or linkages, { } end groups; capitals alone tell only the bases. e = 2'-O-(2-methoxyethyl) (MOE); k = constrained ethyl (cEt); [5mC] = 5-methylcytosine; d = 2'-deoxy (DNA)
measurement-kind: YAP1 (% UT)

* 1198966 (kA*kA*d[5mC]*dT*dT*dT*dA*dA*dA*dG*dT*kG*dT*kA*dT*kG) [Compound 1198966] | 78
* 1198847 (kT*kT*dT*dA*dG*dG*dA*dT*dG*d[5mC]*dA*kT*eG*kG*eT*kT; antisense) [Compound 1198847] | 51
* 1198829 (k[5mC]*kT*dT*dT*dT*dA*d[5mC]*dA*dT*dT*dA*kG*eG*kA*eA*k[5mC]; antisense) [Compound 1198829] | 36
* 1198826 (kA*kA*d[5mC]*dA*d[5mC]*dT*dG*dA*dG*dG*dT*kA*eT*kA*eA*k[5mC]; antisense) [Compound 1198826] | 64
* 1198845 (kA*kG*dG*dA*dT*dG*d[5mC]*dA*dT*dG*dG*kT*eT*kT*eT*kT; antisense) [Compound 1198845] | 43
* 1198825 (kG*kA*dG*dG*dT*dA*dT*dA*dA*d[5mC]*dT*kG*eG*kG*e[5mC]*kA; antisense) [Compound 1198825] | 64
* 1198888 (kA*kG*dA*d[5mC]*dT*dA*dA*dG*dT*dA*dA*kG*eG*kT*eT*kT; antisense) [Compound 1198888] | 51
* 1198848 (kA*kT*dT*dT*dA*dG*dG*dA*dT*dG*d[5mC]*kA*eT*kG*eG*kT; antisense) [Compound 1198848] | 47
* 1198821 (kT*k[5mC]*dT*dA*dT*dA*dT*dT*dA*dG*dA*kG*eT*kA*eT*kG; antisense) [Compound 1198821] | 62
* 1198818 (antisense kT*kA*dT*dT*dA*dG*dA*dG*dT*dA*dT*kG*eT*kG*eG*k[5mC]) [Compound 1198818] | 15
* 1095407 (antisense kA*k[5mC]*dT*dG*dA*dG*dG*dT*dA*dT*dA*kA*e[5mC]*kT*eG*kG) [Compound 1095407] | 54
* 1198855 (kT*kT*dA*dT*dA*dT*dG*dG*dT*dT*dT*kT*eG*kT*eG*kT; antisense) [Compound 1198855] | 30
* 1198853 (kA*kT*dT*d[5mC]*dA*dG*dA*dT*dT*dT*dA*kG*eG*kA*eT*kG; antisense) [Compound 1198853] | 105
